test system: IGROV1 ovarian; assay: NCI-60 one-dose screen, 48 h (100 = growth as untreated, 0 = no growth, -100 = all killed); details: 10 µM unless noted
The panel holds about 83,000 compounds, 20% with a hit somewhere; the sample as a whole holds those more often.
Items are presented alongside their recorded growth.
Dear colleague, please return just the value in %, with no unit written.

Q) Provide one value: measured growth of Cc1ccc(-c2nc(/C=N/Nc3cc(C)nc4ccc(Cl)cc34)c(C)o2)cc1
A) -69.7

Q) Provide one value: measured growth of CCC(=O)OCc1cccc(OC)c1
A) 81

Q) Provide one value: measured growth of CC#Cc1nc2ccccc2c(=O)[nH]1
A) 14

Q) Provide one value: measured growth of Cn1c(=O)c2c(ncn2CC[N+](C)(C)C)n(C)c1=O
A) 102

Q) Provide one value: measured growth of Cn1c(=O)c2[nH]c(C(O)C(O)C(O)C(O)CO)nc2n(C)c1=O (configuration not stated)
A) 106

---

system: IGROV1 ovarian; assay: NCI-60 one-dose screen, 48 h; conditions: 10 µM unless noted
Compounds without any hit were thinned out: in the full panel of roughly 83,000, 20% have a hit. The source made the active and inactive calls. The calls were made as follows: active = growth percent below 10; inactive = the rest.
In this exercise, the only acceptable responses are TRUE = active, FALSE = inactive

CC1CN(Cc2ccco2)C(=S)N(c2ccccc2)C1=O (configuration not stated) :: FALSE
O=C(N/N=C/c1ccc(O)cc1O)c1cccnc1 :: FALSE
COc1cc(C2C(C(=O)c3cccs3)=C(O)C(=O)N2CCN2CCOCC2)cc(OC)c1OC (configuration not stated) :: FALSE
C/C(=C(/c1ccc(O)cc1)c1ccc(OCCN2CCCC2)cc1)c1ccccc1 :: FALSE
COc1ccc(N(Cc2cc(OC)c(OC)c(OC)c2)C2OC(=O)c3ccccc32)cc1 (configuration not stated) :: FALSE
CCC(=O)Oc1ccc(/C(=C(\C)c2ccccc2)c2ccc(OCCN(CC)CC)cc2)cc1 :: FALSE
Nc1cc2nc3ccccc3sc-2cc1=O :: FALSE
NC(N)=Nc1ccc(S(=O)(=O)O)cc1 :: FALSE
CCCCCCCCCc1cc(CN2CCCCC2)c(O)c(CN2CCCCC2)c1 :: FALSE
CC(=O)C1=C(O)C=C2Oc3c(C(=O)/C=C/c4ccccc4)c(O)c(C)c(O)c3[C@]2(C)C1=O :: FALSE

Q) Test call, this compound: Nc1nc2c(c3ncccc13)C(c1ccc(Cl)c(Cl)c1)Cc1ncccc1-2 (configuration not stated)
A) FALSE

Q) Test call, this compound: Cc1[nH]n(-c2ccccc2)c2nc3nncc3c(-c3ccc(Cl)cc3)c12
A) FALSE

Q) Test call, this compound: C=C1CCC2C3(C)COC(c4ccc(OC)cc4Br)OC3CCC2(C)C1/C=C/C1=CCOC1=O (configuration not stated)
A) FALSE

Q) Test call, this compound: Clc1nc(Cl)c2c3c(sc2n1)CCCC3
A) FALSE

Q) Test call, this compound: COc1ccc(/C=C2\N=C3Sc4cc(Cl)ccc4C(=O)N3C2=O)cc1
A) FALSE

Q) Test call, this compound: O=C1/C(=C/c2ccc(Cl)cc2Cl)CN(S(=O)(=O)c2ccccc2)C/C1=C\c1ccc(Cl)cc1Cl
A) TRUE

Q) Test call, this compound: CCN(CC)CCC(=O)c1ccc(OC)c2ccccc12
A) FALSE

Q) Test call, this compound: CN1C2CCC1/C(=C\c1ccc(Cl)cc1)C1=C2[C@@H](c2ccc(Cl)cc2)C(C#N)=C(N)O1 (some centres not stated)
A) FALSE

Q) Test call, this compound: CC[C@H](CO)Nc1nc(NCc2ccccc2)n2ncc(C(C)C)c2n1
A) FALSE

Q) Test call, this compound: CCn1cc2c(cc1=O)-c1nc3ccccc3c3ccnc(c13)C2=O
A) FALSE

Q) Test call, this compound: COc1ccc(-c2cc(/C=C3\C(=O)Nc4ccc(Cl)cc43)[nH]n2)cc1
A) FALSE

Q) Test call, this compound: COCCOC(=O)C1=C(C)NC(=S)NC1c1ccc2c(c1)OCO2 (configuration not stated)
A) FALSE

---

system: OVCAR-5 ovarian; assay: NCI-60 one-dose screen, 48 h; conditions: 10 µM unless noted
This is part of a sample that, as a whole, favours compounds with a hit. Of some 83,000 tested, about 20% had one in any assay. The source made the active and inactive calls. Rule for the calls: active = growth percent below 10; inactive = the rest.
In this exercise, the only acceptable responses are active, inactive

Q) Test call, this compound: COc1ccc(C(=O)/C=C/c2c[n+](=O)c3ccc(F)cc3n2[O-])cc1
A) inactive

Q) Test call, this compound: Cc1cc(Nc2nc(-c3cccnc3)nc3ccccc23)n[nH]1
A) inactive

Q) Test call, this compound: CCN(CC)CCCC(C)N/C(=C1\C(=O)NC(=O)\C1=C(/NC(C)CCCN(CC)CC)c1cccc(OC)c1)c1cccc(OC)c1 (stereo unspecified)
A) active

---

system: T-47D breast; assay: NCI-60 one-dose screen, 48 h; settings: 10 µM unless noted
Compounds without any hit were thinned out: in the full panel of roughly 83,000, 20% have a hit. Activity calls are given as the source filed them. Rule for the calls: active = growth percent below 10; inactive = the rest.
In this exercise, the only acceptable responses are True (active), False (inactive)

Example entries begin here.
CC1=C(NCCN2CCCC2)C(=O)c2c(OCc3cccc(Cl)c3)cccc2C1=O :: False
O=[N+]([O-])c1cccc(-c2nc3sccn3c2-c2ccnc(NCCNS(=O)(=O)c3ccc(C(F)(F)F)cc3)n2)c1 :: True
CCN(CC)c1ccc(/C=C/C2=[N+](C)c3ccccc3C2(C)C)cc1 :: False
C=CC[N+]1(CC)CCN=C1CCCCCCCCCCCCCCCCC (centres undefined) :: True

Q) Test call, this compound: O=C(Nc1ccc(Nc2cc(Nc3ccccc3)ncn2)cc1)Nc1cc(C(F)(F)F)ccc1F
A) False

Q) Test call, this compound: CC(C)(C)n1cc(-c2ccnc(NCCCNS(=O)(=O)c3cccc4ccccc34)c2)c(-c2cccc(O)c2)n1
A) True

Q) Test call, this compound: CC(=O)OC1Oc2cc(C)c(C)cc2-c2oc(=O)c(-c3cc4ccc(N(C)C)cc4oc3=O)cc21 (centres undefined)
A) False

---

Items are presented alongside their recorded growth.
System: SK-MEL-28 melanoma
Test: NCI-60 one-dose screen, 48 h (100 = growth as untreated, 0 = no growth, -100 = all killed)
Settings: 10 µM unless noted
Method: Growth inhibition of the SK-MEL-28 human tumor cell line is measured as a screen for anti-cancer activity. Cells are grown in 96 well plates and exposed to the test compound for 48 hours. Compounds are tested at a single concentration, which is 10^-5 M for most compounds. The reported endpoint is percent growth (GI% or GIPRCNT), where numbers from 0 - 100% represent growth inhibition, and numbers from -100% - 0 represent cell death. For example, a value of 40 represents 60% growth inhibition. […]
Compounds without any hit were thinned out: in the full panel of roughly 83,000, 20% have a hit.
Dear colleague, please return just the value in %, with no unit written.

Some solved cases for reference:
COC(=O)C12C3C(=O)N(c4ccc(OC)cc4)C(=O)C3C(c3cn(-c4ccccc4)nc3C)N1[C@H](c1cn(-c3ccccc3)nc1C)[C@@H]1C(=O)N(c3ccc(OC)cc3)C(=O)[C@@H]12 (stereo partly drawn) :: 105
Cc1ccc(C2CC3c4ccccc4C2C2CCCCN32)cc1 (stereo not drawn) :: 96.4
COC(=O)[C@H](C(C)C)n1c(=O)c2cc(OC)c(OC)cc2c2cnc3[nH]ccc3c21 :: 62.2
C[C@@]1(N2C(=O)OC[C@@H]2c2ccccc2)C(=O)N([C@H](CC(=O)N2CCC(N3CCCCC3)CC2)C(=O)NCc2cccc(C(F)(F)F)c2)[C@@H]1/C=C/c1ccccc1 :: -45.2
CC[n+]1ccc2c(c1)C(=O)c1nccc3c1c-2nc1ccccc13 :: 1.07

Q) Provide one value: measured growth of Nc1ccc(N2CCOCC2)cc1
A) 118

Q) Provide one value: measured growth of CC1=C(NCCN2CCCC2)C(=O)c2c(OCc3cccc(Cl)c3)cccc2C1=O
A) -8.01

Q) Provide one value: measured growth of O=C1c2cccnc2C(=O)c2c1c(C(=O)OCCN1CCOCC1)c1ccccn21
A) -3.26

---

tested on: IGROV1 ovarian; test: NCI-60 one-dose screen, 48 h (100 = growth as untreated, 0 = no growth, -100 = all killed); conditions: 10 µM unless noted
The panel holds about 83,000 compounds, 20% with a hit somewhere; the sample as a whole holds those more often.
Items are presented alongside their recorded growth.
Dear colleague, please return just the value in %, with no unit written.

CCOC(=O)C12CCCC1=CC(=O)CC2 (stereo unspecified) :: 103
NCc1cn2cc(Cl)sc2n1 :: 109
S=c1[nH]nc(CSc2ncnc3c2c(-c2ccccc2)cn3-c2ccc(Cl)cc2)o1 :: 92.3
OCC1C2C=CC(C2)C1CO (stereo unspecified) :: 101
COc1cnc2c(c1)C(=O)c1c-2n(CCCN2CCN(C)CC2)c(=O)c2cc([N+](=O)[O-])ccc12 :: -55.2
CCCCCC(=O)Oc1ccc(/C(=C(\C)c2ccccc2)c2ccc(OCCN(CC)CC)cc2)cc1 :: 75.9
CCN(CC)CC#CCOC(=O)[C@]1(C)CCC[C@@]2(C)[C@H]1CC(C=O)=C1C=C(C(C)C)CC[C@@H]12 :: 63.2
COc1cc(NC(N)=NCC(C)(C)COc2ccc(C(F)(F)F)cc2)cnc1C#N :: 43.9

Q) Provide one value: measured growth of COc1ccc(-c2cnoc2-c2cc(OC)c3c(c2)OCCO3)cc1
A) 29.2

Q) Provide one value: measured growth of COc1cc(OC)c(/C=C/c2cc[n+](C)c3ccccc23)c(OC)c1
A) 6.79

Q) Provide one value: measured growth of CN1CCN(Cc2ccc(NC(=O)c3cncc(C#Cc4cnc(N)c5cccnc45)c3)cc2C(F)(F)F)CC1
A) 7.64

Q) Provide one value: measured growth of CCN(CC)CCC(=O)Nc1ccc(Cn2nnc3c2C(=O)c2nnn(Cc4ccc(NC(=O)CCN(CC)CC)cc4)c2C3=O)cc1
A) -55.6

Q) Provide one value: measured growth of O=c1c2cccc3c(Nc4c(F)cccc4F)ccc(c32)c2nc3ccccc3n12
A) 53.4

Q) Provide one value: measured growth of c1ccc2sc(SCCCn3ccnc3)nc2c1
A) 103

Q) Provide one value: measured growth of CCCCCCCCCCCCCCCC[N+]1(CC)CCCC1
A) -76

Q) Provide one value: measured growth of O=C(CCCN1CCOCC1)Nc1ccc(Cn2nnc3c2C(=O)c2nnn(Cc4ccc(NC(=O)CCCN5CCOCC5)cc4)c2C3=O)cc1
A) 3.22

Q) Provide one value: measured growth of O=C1C[C@H](Sc2nc(-c3ccc(F)cc3)cc(C(F)(F)F)n2)[C@H]2CO[C@@H]1O2
A) 115
